The entries below are paired with their reported INH.
- Target System: Cytochrome P450 2C19 (Homo sapiens, UniProt P33261)
- Sequence (P33261 whole entry): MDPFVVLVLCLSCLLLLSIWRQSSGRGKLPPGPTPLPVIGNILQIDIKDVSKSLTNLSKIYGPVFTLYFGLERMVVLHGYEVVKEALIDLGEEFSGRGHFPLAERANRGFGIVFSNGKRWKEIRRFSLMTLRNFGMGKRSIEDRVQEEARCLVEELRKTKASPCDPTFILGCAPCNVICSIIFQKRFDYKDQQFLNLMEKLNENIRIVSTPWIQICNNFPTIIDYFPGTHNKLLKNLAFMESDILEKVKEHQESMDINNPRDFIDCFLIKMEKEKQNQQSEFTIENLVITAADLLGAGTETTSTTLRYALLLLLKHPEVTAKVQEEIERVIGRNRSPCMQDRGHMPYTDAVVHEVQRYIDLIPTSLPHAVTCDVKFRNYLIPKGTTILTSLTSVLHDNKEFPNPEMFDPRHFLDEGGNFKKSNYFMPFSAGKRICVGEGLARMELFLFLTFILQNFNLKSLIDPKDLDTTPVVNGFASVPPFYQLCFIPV
- Run Description: Inhibition of CYP2C19 (unknown origin)
- Type: ADME
Attribute Measured: INH

# Compound Structure, Target System, Attribute Measured, Measured Value
records = [
    ("CC(C)(C)NS(=O)(=O)c1ccc(-c2sc(C(=O)N[C@H]3C[C@H](C(=O)O)C3)nc2CC2CCCCC2)c(C(F)(F)F)c1", "Cytochrome P450 2C19 (Homo sapiens, UniProt P33261)", "INH", "> 10 µM"),
    ("C[C@H](NS(=O)(=O)c1ccc(-c2sc(C(=O)NCC(C)(C)O)nc2COC(C)(C)C)c(Cl)c1Cl)C(F)(F)F", "Cytochrome P450 2C19 (Homo sapiens, UniProt P33261)", "INH", "6.5 µM"),
    ("C[C@H](NC(=O)c1cc(-c2sc(C(=O)N[C@H]3C[C@H](C(=O)O)C3)nc2CC2CCCCC2)cc(C2(C)CC2)c1)C(F)(F)F", "Cytochrome P450 2C19 (Homo sapiens, UniProt P33261)", "INH", "> 10 µM"),
    ("CC(C)NS(=O)(=O)c1ccc(-c2sc(C(=O)N[C@H]3C[C@H](C(=O)O)C3)nc2CC2CCCCC2)c(C(F)F)c1Cl", "Cytochrome P450 2C19 (Homo sapiens, UniProt P33261)", "INH", "> 10 µM"),
]

---

- Run Description: Thermodynamic solubility of the compound in 30 mM phosphate buffer at 10 mM at pH 2 after 2 to 5 days by UV-HPLC analysis
- Format: physicochemical
- Assay Setup: read-out: Therm_solubility

# Compound Structure, solubility thermodynamic at 10000 µM
rows = [
    ("CC(C)(C)NS(=O)(=O)c1ccc(-c2sc(C(=O)N[C@H]3C[C@H](C(=O)O)C3)nc2CC2CCCCC2)c2ccccc12", "< 1 µM"),
]

---

- Target System: Cytochrome P450 2C19 (Homo sapiens, UniProt P33261)
- Run Description: Inhibition of CYP2C19 (unknown origin)
- Type: ADME
The entries below are paired with their reported INH.

# Compound Structure, Unit Info, Inequality Operator, INH
rows = [
    ("CC(C)(C)NS(=O)(=O)c1ccc(-c2sc(C(=O)N[C@H]3C[C@H](C(=O)O)C3)nc2CC2CCCCC2)c(Cl)c1", "µM", ">", 10),
    ("C[C@H](NS(=O)(=O)c1ccc(-c2sc(C(=O)NCC(C)(C)O)nc2CC2CC2)c2ccccc12)C(F)(F)F", "µM", "=", 2),
    ("CC(C)(C)NS(=O)(=O)c1ncc(-c2sc(C(=O)N[C@H]3C[C@H](C(=O)O)C3)nc2CC2CCCCC2)c2ccccc12", "µM", ">", 10),
    ("CC(C)(C)NS(=O)(=O)c1ccc(-c2sc(C(=O)N[C@H]3C[C@H](C(=O)O)C3)nc2CC2CCCCC2)c2c1CCCC2", "µM", ">", 10),
    ("C[C@H](NS(=O)(=O)c1ccc(-c2sc(C(=O)NCC(C)(C)O)nc2CC2CCC2)c(C(F)F)c1)C(F)(F)F", "µM", "=", 3),
    ("CCC(C)(C)NS(=O)(=O)c1ccc(-c2sc(C(=O)N[C@H]3C[C@H](C(=O)O)C3)nc2CC2CCCCC2)c(Cl)c1C", "µM", ">", 10),
    ("CC(C)(C)NS(=O)(=O)c1ccc(-c2sc(C(=O)N[C@H]3C[C@H](C(=O)O)C3)nc2CC2CCCCC2)c2ccccc12", "µM", ">", 10),
    ("CC(C)(O)CNC(=O)c1nc(CC2CCCCC2)c(-c2ccc(S(=O)(=O)NC3(C#N)CC3)c3ccccc23)s1", "µM", "=", 6.3),
    ("CC(C)(C)NS(=O)(=O)c1ccc(-c2sc(C(=O)NCCN3CCOCC3)nc2CC2CCCCC2)c2ccccc12", "µM", "=", 1.1),
    ("Cc1c(S(=O)(=O)NC(C)(C)C)ccc(-c2sc(C(=O)N[C@H]3C[C@H](C(=O)O)C3)nc2CC2CCCCC2)c1OC(F)F", "µM", ">", 10),
]
